# Assay Remarks: protein stability index of a GFP-peptide fusion (yeast GPS) (PSI 1-4); higher = more stable; sorted into four equal gates, so the index is relative within each strain
# Conditions Used: doa10∆
Assay Readout: protein stability index
The reply should be a number, written without any unit.

Worked examples, 6 sequences total:
PEIGNRKINLFYLYMLV [SWI1]: 1.54
VLRINKMLSCAGADRLQ [RPL10]: 1.1
IADQDMEDEDMVDVIID [ESC2]: 3.41
LNSNNSIIGNKNNNYTW [REC8]: 2.86
EYNKPNSEKFVFLLTTR [ISW2]: 3.09
YTDRDQDEVNKGPAIDE [NNF1]: 2.12

# query: protein stability index of entry AAQAQAQAQAQAQAQAQ [GAL11] 2.69

# query: protein stability index of entry GLIAARRTGLLRGSQKT [RPL2A] 3.04

# query: protein stability index of entry PDLNIDRNNSTNQIFQS [SIN4] 3.1

# query: protein stability index of entry ENDQQDNEEWMNDVINT [LIN1] 3.36

# query: protein stability index of entry LRASFNKLSSILQNEHD [SRB4] 2.1

* * *

# Assay Remarks: protein stability index of a GFP-peptide fusion (yeast GPS) (PSI 1-4); higher = more stable; sorted into four equal gates, so the index is relative within each strain
# Conditions Used: doa10∆
Assay Readout: protein stability index
The reply should be a number, written without any unit.

NIRGNTIRQIILPDSLN [SMD1]: 2.87
NYNRIAKICALLFFNFS [NUT1]: 1.89
SNIMSDSKKIKVDSPDD [GAL11]: 2.9
KSWLNRLNNWLFGWNDL [YMR153W/NUP53]: 2.63
IDELIDTKLRLEKSKNE [YIL149C/MLP2]: 2.62
ASLALAHVFVGTCNGDI [RPN1]: 2.48

# query: protein stability index of entry DLVKPKNPKFSNAFYSV [SMC4] 2.43

# query: protein stability index of entry TVNEPQMSDKHATVVPP [SRB7] 2.73

# query: protein stability index of entry NTVDGDLLKLVHLSNGY [FAS1] 2.86

# query: protein stability index of entry SPLLESDSIEKIVEIDR [PUP2] 3.48

# query: protein stability index of entry QQQQQFRHHVQIQQQQQ [SNF5] 1.3

# query: protein stability index of entry PLRENTNVLDVKDKEED [YDL116W/NUP84] 3.07

# query: protein stability index of entry SQTNNSFLSGVKSLLSE [SIR4] 2.98

* * *

# Assay Remarks: protein stability index of a GFP-peptide fusion (yeast GPS) (PSI 1-4); higher = more stable; sorted into four equal gates, so the index is relative within each strain
# Conditions Used: pdr5∆
Assay Readout: protein stability index
The reply should be a number, written without any unit.

Worked examples, 5 sequences total:
ESYYNWKYNNFLQKFEI [YML103C/NUP188]: 2.83
KSYYLNTVMLQGIFKNS [AAR2]: 1.26
TKFSKLIGRPPLLVPGM [FAS1]: 2
YKDVSDLIRSESMLHLS [IRR1]: 2.29
ARRRQPTDQNNQSNLNG [SNF2]: 3.25

# query: protein stability index of entry NNSNNNNIIRIQQLISQ [SNF11] 2.39

# query: protein stability index of entry GLGVLTHRNKDGTGVRV [FAS1] 2.47

# query: protein stability index of entry SLSVVAGKWSSKYLIKQ [ECM29] 2.19

# query: protein stability index of entry LNSNIRAGVTIPSIPNP [SNF5] 2.72

# query: protein stability index of entry TPSTETAASVFKELCYE [PRE3] 2.1

# query: protein stability index of entry PEIGNRKINLFYLYMLV [SWI1] 1.32

# query: protein stability index of entry VQELLKVLNEISKTTLT [RPN3] 3.29

# query: protein stability index of entry GEHEKSNILLNSLTKYP [MED1] 1.92

# query: protein stability index of entry MLMSKIGDVDGLIVNPV [POP5] 2.58

# query: protein stability index of entry ENEVENINATNTSVLMK [YCS4] 3.02

FYI, the data here is from the supplement of paper PMC9732359.
